Would you mind telling me the reported growth inhibition of each entry?
# testName: NCI Yeast Anticancer Drug Screen. Data for the mec2-1 strain (AID 157)
# experimentalContext: S. cerevisiae mec2-1 strain, at 50.0 µM, stronger effect = higher value
# Procedure: Growth inhibition of yeast strains with defined genetic alterations is measured as a screen for potential anti-cancer activity. Selected strains with alterations in DNA damage repair or cell cycle control were exposed to compounds and growth inhibition was measured relative to vehicle treated controls. The strain used in this assay is mec2-1
Compounds without any hit were thinned out: in the full panel of roughly 79,000, 15% have a hit.
The answer is to be given in %; state only the numeric part.

// query # growth inhibition lookup, item COC(=O)CC1(C)[C@H](O)[C@H]2OC(C)(C)O[C@H]2[C@@H]1O (some centres not stated)
// result -10.6

// query Data request, read-out growth inhibition, for C=CCSC(=S)NC
// result -7.5

// query If you can, please state the reported growth inhibition value of N=c1sc(N2CCOCC2)nn1CC(=O)c1ccccc1 .
// result -20.9

// query Request the reported growth inhibition associated with COc1cc(C)cc2c1C(=O)C(Br)=CC2=O
// result 92.3

// query Record request: growth inhibition value, item Cc1nc2cc(C)c(C)cc2[nH]1
// result -1

// query What growth inhibition value was documented for this compound, CCNC(=O)OCCN(CCOC(=O)NCC)CCc1ccccc1 ?
// result 9.15

// query growth inhibition lookup needed for O=C(Nc1ccc([N+](=O)[O-])cc1)OC1CCS(=O)(=O)C1 (configuration not stated) , thanks.
// result 6.15

// query Dear colleague, I am looking for the recorded growth inhibition of the following compound: O=C(O)CNc1ccccc1.[Cu+2]
// result -28.1

// query Dear colleague, I am looking for the recorded growth inhibition of the following compound: c1ccc(N2CCN(CCCN3CCc4c([nH]c5ccccc45)C3c3cccnc3)CC2)cc1 (configuration not stated)
// result -18.1

// query growth inhibition lookup needed for COC(=O)c1cc(C(=O)OC)c(C(=O)OC)cc1C(=O)OC , thanks.
// result -1.25

// query Field request: growth inhibition | item: CCCCCCCCCCCCC(CC)(C(=O)OCC)C(=O)OCC
// result -0.6

// query What value of growth inhibition has been recorded for this entry: CCCCCCCCCCCCCCCCCCOc1c(Cl)c(Cl)c(Cl)c(Cl)c1Cl
// result -1.55

----------
# testName: NCI Yeast Anticancer Drug Screen. Data for the cln2 rad14 strain (AID 165);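 note: 0% = growth equal to vehicle treated cultures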
# experimentalContext: S. cerevisiae cln2 rad14 strain, at 50.0 µM, stronger effect = higher value
About 79,000 compounds went through this panel and 15% of them were active in at least one assay; those are over-represented in the sample as a whole.
measurementLabel: growth inhibition (%)
Response body: numeric value in %, unit text excluded.

// query Which growth inhibition value is on record for O=C(O)c1cc(Br)cc([N+](=O)[O-])c1 ?
// result -49.3

// query Return reported growth inhibition; argument: C=C(C)C(CCC)(C(=O)OCC)C(=O)OCC
// result -4.3

// query State the recorded growth inhibition for this entry: N#CCc1c(-c2ccccn2)[nH]c2ccccc12
// result 18.8

// query // lookup growth inhibition for CCc1nc2ccccc2cc1C
// result -19.6

// query // growth inhibition lookup, key: OC1C(O)C2OC(c3ccccc3)OC2C2OC(c3ccccc3)OC12 (stereo not drawn)
// result 0.1

// query // lookup growth inhibition for CN(C)CCSS(=O)(=O)O
// result 16.6

// query Please report the recorded growth inhibition for CCCCCCCCC/C=C1\CCC(CN2CCOCC2)C1=O (stereo not drawn) .
// result 89.6

// query Sample O=C(/C=C/c1ccccc1O)c1ccccc1 — what was its growth inhibition?
// result 1.9

// query Please look up its growth inhibition: CCCCCCCCCCCCCCCCCCNC(=O)Nc1cc(C(C)C)ccc1C
// result -47.1

// query Look at this compound and give its reported growth inhibition. CN(C)CCNS(=O)(=O)N(C)C
// result 7.45

// query Recorded growth inhibition for O=C(c1ccccc1O)N1CCCCC1 , please?
// result 13.9

// query # growth inhibition lookup, item COc1ccc2c(c1)C1(C)CCCC(C)(CO)C1CC2 (stereo not drawn)
// result 3.95

// query What value of growth inhibition has been reported for the following compound? O/N=C(/CC(O)(C(F)(F)F)C(F)(F)F)c1ccccc1
// result -38.8

src = PubChem BioAssay (NCI)
